The reported numbers originate from PubChem BioAssay AID588475.

assay: antagonists of CRF-BP/CRF-R2 complex, primary screen, cell-based, HEK293, calcium dye fluorescence, uHTS (AID 588475); conditions: CRF-induced calcium fluorescence, at 11.8 µM, stronger effect = higher value
About 2,100 (0.6%) of roughly 350,000 compounds were called active. The sample holds actives, similar compounds and a random draw of the others, so the mix is not that of the screen.
measurement name: inhibition

Data request: # inhibition lookup, item COc1ccc(NC2CC(=O)N(C)C2=O)cc1 (stereo not given)
Data returned: 20.5% (inactive)

Data request: # inhibition lookup, item COc1cc(OC)cc(C(=O)Nc2ncc3c(n2)CC(C)(C)CC3=O)c1
Data returned: 20% (inactive)

Data request: # inhibition lookup, item CCCc1nc(SCC(=O)Nc2ccccc2OC)c2c(=O)n(C)c(=O)n(C)c2n1
Data returned: -6.56% (inactive)

Data request: # inhibition lookup, item CN(C)CCCO/N=C(\c1ccccc1)c1ccncc1
Data returned: 1.7% (inactive)

Data request: # inhibition lookup, item COc1ccccc1C(=O)Nc1ccc(C)c(S(=O)(=O)N2CCCCC2)c1
Data returned: -0.27% (inactive)

Data request: # inhibition lookup, item CCn1cc(/C=C(\NC(=O)c2cc(OC)c(OC)c(OC)c2)C(=O)N2CCN(C)CC2)c2ccccc21
Data returned: -8.31% (inactive)

Data request: # inhibition lookup, item CN(C)c1ccc(C=C2C(=O)OC3(CCCC3)OC2=O)cc1
Data returned: 66.8% (active)

Data request: # inhibition lookup, item COCCCNC(=O)c1ccc(CNS(=O)(=O)c2ccc(NC(C)=O)cc2)cc1
Data returned: -2.43% (inactive)

Data request: # inhibition lookup, item Cc1ccc(NS(=O)(=O)c2ccc(C(C)C)cc2)cc1S(=O)(=O)N1CCOCC1
Data returned: -10.7% (inactive)

Data request: # inhibition lookup, item Cc1ccc(NS(=O)(=O)c2cccs2)cc1S(=O)(=O)N1CCCCCC1
Data returned: 122% (active)
